Origin of measurements: PubChem BioAssay (NCI)

Test system: DU-145 prostate
assay_details: NCI tumour cell line growth inhibition, 48 h; in the data active = GI50 below about 0.43 µM; inactive = the rest
Use one of these outcomes when replying: active, inactive

compound	assayed_system	category_label
COc1cc(C(=O)O)ccc1NC(=O)[C@@H]1N[C@@H](CC(C)(C)C)[C@](C#N)(c2ccc(Cl)cc2F)[C@H]1c1cccc(Cl)c1F	DU-145 prostate	inactive

*Q* Please indicate how the test categorized CCCCCCCCO/N=C\c1c2c(O)c3c(O)c(C)c4c(c3c1O)C(=O)C(C)(O/C=C\C(OC)C(C)C(OC(C)=O)C(C)C(O)C(C)C(O)C(C)/C=C\C=C(\C)C(=O)N2)O4 (stereo not given) .
*A* inactive
